Value source: patent US20230416692A1

# System: A549-hACE2 cells
# condition_summary: human
measured_endpoint: CC50

Look over these answered cases.
NC(=O)c1nc(F)c[nH]c1=O	> 50 µM
C=C1[C@H](CO)[C@@H](O)C[C@@H]1n1cnc2c(=O)[nH]c(N)nc21	> 50 µM

Shifting focus to the compound that follows.
Give CC50 for the following compound: CCOc1nc(N)nc2c1ncn2[C@@H]1O[C@@H]2COP(=O)(OC(C)C)O[C@H]2[C@@]1(C)F (stereo partly drawn)
> 50 µM
